- STUDY_TARGET: human liver-glucuronidase (hβG) (Homo sapiens)
- Sequence (P08236 23-651): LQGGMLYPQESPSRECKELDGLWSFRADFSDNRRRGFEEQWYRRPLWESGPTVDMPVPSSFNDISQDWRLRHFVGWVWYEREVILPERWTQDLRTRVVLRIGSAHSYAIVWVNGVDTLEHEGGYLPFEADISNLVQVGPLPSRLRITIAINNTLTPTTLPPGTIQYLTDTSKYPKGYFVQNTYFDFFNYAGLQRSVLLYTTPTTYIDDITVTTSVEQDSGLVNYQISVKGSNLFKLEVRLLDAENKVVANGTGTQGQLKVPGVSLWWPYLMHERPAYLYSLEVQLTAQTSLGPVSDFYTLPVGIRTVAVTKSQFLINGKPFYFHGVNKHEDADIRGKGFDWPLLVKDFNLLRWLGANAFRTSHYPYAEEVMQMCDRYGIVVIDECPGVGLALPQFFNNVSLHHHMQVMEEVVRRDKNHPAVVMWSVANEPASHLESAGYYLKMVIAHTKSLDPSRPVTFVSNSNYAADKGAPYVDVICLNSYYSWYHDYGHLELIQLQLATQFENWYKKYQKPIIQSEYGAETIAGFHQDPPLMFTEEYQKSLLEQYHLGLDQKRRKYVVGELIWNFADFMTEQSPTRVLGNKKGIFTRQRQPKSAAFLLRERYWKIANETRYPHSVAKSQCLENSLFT
- MEASUREMENT_NOTES: Inhibition of purified recombinant hβG activity (pNPG substrate, OD420)
- Assay type: biochemical
- MEASUREMENT_CONDITIONS: 10 μM; purified recombinant hβG, pNPG; means ± S.D. of at least three separate experiments; read-out: Percent activity of human liver-glucuronidase at 10 μM (%)
Exercise: state measured remaining activity at 10 µM for each of the compounds provided.
One number for each entry, in %.

Recorded remaining activity at 10 µM, per entry:
Prompt line: // lookup remaining activity at 10 µM for `COc1ccc(NC(=O)Nc2n[nH]c3c2c(Nc2ccc(Cl)cc2)nc2ccccc23)cc1`
Response line: 85.5

Prompt line: Check `COc1cccc(Nc2nc3ccccc3c3[nH]nc(N)c23)c1` too.
Response line: 107

Prompt line: Check `Cc1cccc2c1nc(Nc1ccc(Cl)cc1)c1c(N)n[nH]c12` too.
Response line: 78.5

Prompt line: Check `CC(=O)c1cccc(Nc2nc3ccccc3c3[nH]nc(N)c23)c1` too.
Response line: 93

Prompt line: Check `Nc1n[nH]c2c1c(Nc1ccc(F)cc1)nc1ccccc12` too.
Response line: 99

Fill in remaining activity at 10 µM for each of the 2 compounds listed.
1. Nc1n[nH]c2c1c(Nc1cccc(Cl)c1)nc1ccccc12
2. Nc1n[nH]c2c1c(Nc1ccc(C(F)(F)F)cc1)nc1ccccc12

Response line:
1. 97.8
2. 106

Fill in remaining activity at 10 µM for each of the 5 compounds listed.
1. Cc1ccc(Nc2nc3c(C)cccc3c3[nH]nc(N)c23)cc1
2. Cc1ccc(Nc2nc3ccc(Cl)cc3c3[nH]nc(N)c23)cc1
3. Nc1n[nH]c2c1c(Nc1ccc(Cl)cc1)nc1ccccc12
4. Nc1n[nH]c2c1c(Nc1cccc(O)c1)nc1ccccc12
5. Cc1ccccc1Nc1nc2ccccc2c2[nH]nc(N)c12

Response line:
[74, 80.5, 113, 105, 95.7]

Fill in remaining activity at 10 µM for each of the 2 compounds listed.
1. Nc1n[nH]c2c1c(Nc1ccccc1O)nc1ccccc12
2. Nc1n[nH]c2c1c(Nc1ccc(C(=O)O)cc1)nc1ccccc12

Response line:
1: 104; 2: 95

----------
Structures can show the parent of a compound that is named as a salt.
Exercise: state measured melting point for each of the molecules provided.

Recorded melting point, per entry:
Prompt line: // lookup melting point for Cc1ccc(Nc2nc3ccccc3c3[nH]nc(NC(=O)Nc4ccccc4)c23)cc1 [Compound 37]
Response line: 212 to 213 °C

Prompt line: Check COc1ccc(NC(=O)Nc2n[nH]c3c2c(Nc2ccc(C)cc2)nc2ccccc23)cc1 [Compound 39] too.
Response line: 163 to 164 °C

Prompt line: Check Cc1cccc(Nc2nc3ccccc3c3[nH]nc(N)c23)c1 (as salt: salt) [Compound 25] too.
Response line: 281 to 282 °C

Consider the record given below.
Prompt line: // lookup melting point for Cc1ccc(Nc2nc3c(C)cccc3c3[nH]nc(N)c23)cc1 [Compound 7]
Response line: 270 to 271 °C

----------
- STUDY_TARGET: E. coli β-glucuronidase (eβG) (Escherichia coli)
- MEASUREMENT_NOTES: Inhibition of purified recombinant eβG activity (pNPG substrate, OD420)
- Assay type: biochemical
- MEASUREMENT_CONDITIONS: read-out: Percent activity of E. coli-glucuronidase at 10 μM (%)
Decide using remaining activity at 10 µM alone. Strictly below 5%: t. Equal to or above 5%: f.

These recorded examples may help you get a feel for the data.
Prompt line: Please indicate whether the reported remaining activity at 10 µM of COc1ccccc1Nc1nc2ccccc2c2[nH]nc(N)c12 [Compound 32] is strictly below 5%.
Response line: t

Prompt line: Check Nc1n[nH]c2c1c(Nc1ccc(C(F)(F)F)cc1)nc1ccccc12 [Compound 18] too.
Response line: t

Prompt line: Check CCOc1ccc(NC(=S)N(CCO)Cc2cc3cc(C)cc(C)c3[nH]c2=O)cc1 [βG-Inh, reference compound] too.
Response line: t

Prompt line: Check Cc1cccc(Nc2nc3ccccc3c3[nH]nc(N)c23)c1 [Compound 25] too.
Response line: f

Prompt line: Check Nc1n[nH]c2c1c(Nc1ccc(C(=O)O)cc1)nc1ccccc12 [Compound 22] too.
Response line: f

Prompt line: Check Nc1n[nH]c2c1c(Nc1ccc(Cl)cc1)nc1ccc(Cl)cc12 [Compound 10] too.
Response line: t

Prompt line: Check Nc1n[nH]c2c1c(Nc1ccc(O)cc1)nc1ccccc12 [Compound 15] too.
Response line: f

Kindly consider the entry below.
Prompt line: Please indicate whether the reported remaining activity at 10 µM of COc1ccc(Nc2nc3ccccc3c3[nH]nc(N)c23)cc1 [Compound 19] is strictly below 5%.
Response line: t

----------
Structures can show the parent of a compound that is named as a salt.
Exercise: state measured melting point for each of the compounds provided.

Prompt line: // lookup melting point for Nc1n[nH]c2c1c(Nc1cccc(Cl)c1)nc1ccccc12 [Compound 26]
Response line: 227 to 229 °C

Prompt line: Check Cc1cccc2c1nc(Nc1ccc(Cl)cc1)c1c(N)n[nH]c12 [Compound 6] too.
Response line: 249 to 250 °C

Fill in melting point for each of the 3 compounds listed.
1. Nc1n[nH]c2c1c(Nc1ccc(Cl)cc1)nc1ccccc12 [Compound 4]
2. Nc1n[nH]c2c1c(Nc1ccc(C(=O)O)cc1)nc1ccccc12 (as salt: salt) [Compound 22]
3. Cc1ccc(Nc2nc3ccc(Cl)cc3c3[nH]nc(N)c23)cc1 (as salt: salt) [Compound 11]

Response line:
246 to 248 °C
362 to 364 °C
261 °C

----------
Structures can show the parent of a compound that is named as a salt.
OUTCOME_MEASURE: melting point

Prompt line: // lookup melting point for `Cc1ccc(Nc2nc3ccccc3c3[nH]nc(N)c23)cc1`
Response line: 292 to 294 °C

Fill in melting point for each of the 3 molecules listed.
1. Nc1n[nH]c2c1c(Nc1cccc(O)c1)nc1ccccc12 (as salt: salt)
2. Nc1ccc(Nc2nc3ccccc3c3[nH]nc(N)c23)cc1
3. O=C(Nc1ccccc1)Nc1n[nH]c2c1c(Nc1ccc(Cl)cc1)nc1ccccc12

Response line:
["319 to 321 °C", "355 to 356 °C", "282 to 283 °C"]

Fill in melting point for each of the 7 molecules listed.
1. Nc1n[nH]c2c1c(Nc1ccc(F)cc1)nc1ccccc12
2. Cc1ccccc1Nc1nc2ccccc2c2[nH]nc(N)c12
3. Nc1n[nH]c2c1c(Nc1ccccc1Cl)nc1ccccc12
4. CC(=O)c1ccc(Nc2nc3ccccc3c3[nH]nc(N)c23)cc1 (as salt: salt)
5. Nc1n[nH]c2c1c(Nc1ccc(O)cc1)nc1ccccc12
6. COc1cccc(Nc2nc3ccccc3c3[nH]nc(N)c23)c1
7. Nc1n[nH]c2c1c(Nc1ccc(C(F)(F)F)cc1)nc1ccccc12

Response line:
["266 to 268 °C", "228 to 230 °C", "243 to 244 °C", "249 to 251 °C", "347 to 349 °C", "184 to 186 °C", "251 to 252 °C"]

----------
- STUDY_TARGET: E. coli β-glucuronidase (eβG) (Escherichia coli, UniProt P05804)
- Sequence (P05804 whole entry): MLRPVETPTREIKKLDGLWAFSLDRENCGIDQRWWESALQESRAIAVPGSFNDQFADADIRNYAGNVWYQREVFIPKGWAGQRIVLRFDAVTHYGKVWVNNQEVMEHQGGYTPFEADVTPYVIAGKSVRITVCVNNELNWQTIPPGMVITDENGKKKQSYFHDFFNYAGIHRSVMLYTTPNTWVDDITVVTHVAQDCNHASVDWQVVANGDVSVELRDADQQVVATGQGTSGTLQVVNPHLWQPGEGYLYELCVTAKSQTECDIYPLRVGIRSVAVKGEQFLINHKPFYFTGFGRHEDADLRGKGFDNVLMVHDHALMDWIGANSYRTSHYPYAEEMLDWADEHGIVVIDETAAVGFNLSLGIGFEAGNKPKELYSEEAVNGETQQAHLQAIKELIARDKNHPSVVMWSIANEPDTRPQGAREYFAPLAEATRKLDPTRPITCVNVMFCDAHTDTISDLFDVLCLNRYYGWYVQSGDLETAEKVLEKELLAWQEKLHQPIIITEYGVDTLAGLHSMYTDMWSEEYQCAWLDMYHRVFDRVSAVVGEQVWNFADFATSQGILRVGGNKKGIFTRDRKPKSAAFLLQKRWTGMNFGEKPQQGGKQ
- MEASUREMENT_NOTES: Inhibition of purified recombinant eβG activity (pNPG substrate, OD420)
- Assay type: biochemical
- MEASUREMENT_CONDITIONS: read-out: Percent activity of E. coli-glucuronidase at 10 μM (%)
Decide using remaining activity at 10 µM alone. Strictly below 4%: rule met. Equal to or above 4%: rule not met.

These recorded examples may help you get a feel for the data.
Prompt line: Please indicate whether the reported remaining activity at 10 µM of CSc1ccc(Nc2nc3ccccc3c3[nH]nc(N)c23)cc1 [Compound 20] is strictly below 4%.
Response line: rule not met

Prompt line: Check Nc1n[nH]c2c1c(Nc1cccc(Cl)c1)nc1ccccc12 [Compound 26] too.
Response line: rule not met

Prompt line: Check Nc1n[nH]c2c1c(Nc1cccc(O)c1)nc1ccccc12 [Compound 24] too.
Response line: rule not met

Continuing:
Prompt line: Please indicate whether the reported remaining activity at 10 µM of COc1ccc(NC(=O)Nc2n[nH]c3c2c(=O)[nH]c2ccccc23)cc1 [Compound 35] is strictly below 4%.
Response line: rule not met

Prompt line: Check Nc1n[nH]c2c1c(Nc1ccc(F)cc1)nc1ccccc12 [Compound 17] too.
Response line: rule not met

Prompt line: Check Nc1n[nH]c2c1c(Nc1ccc([N+](=O)[O-])cc1)nc1ccccc12 [Compound 21] too.
Response line: rule not met

Prompt line: Check Cc1ccccc1Nc1nc2ccccc2c2[nH]nc(N)c12 [Compound 30] too.
Response line: rule not met

Prompt line: Check Cc1ccc(Nc2nc3c(C)cccc3c3[nH]nc(N)c23)cc1 [Compound 7] too.
Response line: rule met

Prompt line: Check Cc1ccc(Nc2nc3ccc(Cl)cc3c3[nH]nc(N)c23)cc1 [Compound 11] too.
Response line: rule met

Prompt line: Check COc1cccc(Nc2nc3ccccc3c3[nH]nc(N)c23)c1 [Compound 27] too.
Response line: rule not met
